molecular target: Voltage-gated potassium channel subunit beta-2 (Rattus norvegicus) (UniProt P62483); experiment: inhibitors of rat Kvbeta2 reductase activity – biochemical, NADPH fluorescence, primary screen (AID 622); settings: recombinant KvBeta, 4-cyanobenzaldehyde reduction, at 10 µM, stronger effect = higher value;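 further: slope of raw intensity against log time taken from 70 to 1610 s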
Sequence (P62483 whole entry, looked up): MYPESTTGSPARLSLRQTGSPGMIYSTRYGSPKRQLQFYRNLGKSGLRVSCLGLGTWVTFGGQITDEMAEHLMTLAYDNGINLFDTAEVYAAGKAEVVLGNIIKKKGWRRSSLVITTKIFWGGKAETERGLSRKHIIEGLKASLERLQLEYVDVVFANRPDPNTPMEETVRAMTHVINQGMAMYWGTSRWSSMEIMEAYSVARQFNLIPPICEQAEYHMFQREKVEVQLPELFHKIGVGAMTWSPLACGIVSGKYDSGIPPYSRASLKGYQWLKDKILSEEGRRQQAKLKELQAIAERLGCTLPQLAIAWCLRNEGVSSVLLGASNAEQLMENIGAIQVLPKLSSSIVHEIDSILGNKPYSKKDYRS
# binarize fluorescence slope: threshold -0.5 inclusive, high side T, low side F

Study these solved cases before continuing.
[[record]]
compound = "CCOC(=O)CSc1nc2ccccc2n2cnnc12"
class_assignment = "T"

[[record]]
compound = "O=C(Oc1ccccc1)c1c(Cl)cccc1P(=O)(O)O"
class_assignment = "T"

[[record]]
compound = "COc1ccc2c(c1OC)C(=O)OC2Nn1cncn1 (stereo unspecified)"
class_assignment = "F"


Please find the next compound below.
Entry `Cc1ccc2c(COn3nnc4ccc(S(=O)(=O)N(C)C)cc43)cc(=O)oc2c1C` : is its fluorescence slope no less than -0.5? F

---

test: reduction of polyQ htt aggregates in cells – imaging, exon1htt(103Q)mCFP cells, high-content imaging, primary screen (AID 483); conditions: exon1htt(103Q)mCFP cell line, aggregate imaging, at 2 µM; measured here: cell count, toxicity;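 further: compound exposure lasted 3 days before fixation; percent of the per-plate median nuclei count of sample wells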
experimental-readout: nuclei count (%)
A number alone suffices; assume %.

Query `COc1ccc(CCn2c(N)c(C#N)c3nc4ccccc4nc32)cc1OC` yields nuclei count of 105

Query CCOC(=O)C1=C(C)Nc2ncnn2C1c1cc(OC)ccc1OC (centres undefined) yields nuclei count of 97.1

Query `CCCCCCC(=O)c1c(C)[nH]c(C(=O)OCC)c1C` yields nuclei count of 59.6

Query `COc1ccccc1N1CCN(C(=O)CSc2nc(-c3ccccc3)cc(=O)[nH]2)CC1` yields nuclei count of 114

Query CCOC(=O)C1=C(c2ccccc2)Nc2nc(C)nn2C1c1cccc(OC)c1OC (centres undefined) yields nuclei count of 111

Query `Cc1cc(C)c2c(=O)[nH]c(=O)n(Cc3ccccc3)c2n1` yields nuclei count of 114

Query `CCC(=O)N(Cc1cc2c(C)ccc(C)c2[nH]c1=O)C1CCCCC1` yields nuclei count of 93.2

Query `CS(=O)(=O)Nc1ccc(C(=O)NCc2ccc3c(c2)OCO3)cc1` yields nuclei count of 66.5

Query `Cc1occc1C(=O)Nc1cccnc1` yields nuclei count of 108

---

assay: reduction of polyQ htt aggregates in cells – imaging, exon1htt(103Q)mCFP cells, high-content imaging, primary screen (AID 483); settings: exon1htt(103Q)mCFP cell line, aggregate imaging, at 2 µM; measured here: cell count, toxicity;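 further: compound exposure lasted 3 days before fixation; percent of the per-plate median nuclei count of sample wells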
Listing: nuclei count of selected molecules
A number alone suffices; assume %.

Please review the entries below; each comes with its answer.
[[record]]
molecule = "O=C1CC(c2ccc(Cl)cc2)n2nc(N3C(=O)c4ccccc4C3=O)nc2N1 (configuration not stated)"
recorded_value = 104

[[record]]
molecule = "O=C1CN(c2ccccc2F)C(=O)CN1c1ccccc1F"
recorded_value = 97.5

[[record]]
molecule = "COc1ccccc1C1/C(=C(\\O)c2c(C)nc3c(C)cccn23)C(=O)C(=O)N1CCCN(C)C (configuration not stated)"
recorded_value = 110

[[record]]
molecule = "O=C(/C=N/O)Nc1cccnc1"
recorded_value = 86

[[record]]
molecule = "Cc1onc(-c2ccccc2)c1C(=O)Nc1ccnn1C1CCCCC1"
recorded_value = 94.4

[[record]]
molecule = "CCN(CCNC(=O)C1CCN(S(=O)(=O)CC)CC1)c1ccccc1"
recorded_value = 86.2

[[record]]
molecule = "CCCCOC(=O)Cn1c(=N)n(CCN2CCOCC2)c2ccccc21"
recorded_value = 91.9

[[record]]
molecule = "OC(CCN1CCCCC1)(c1ccccc1)C1CCCCC1 (configuration not stated)"
recorded_value = 107

[[record]]
molecule = "O=C(Cc1ccsc1-c1ccccc1)NO"
recorded_value = 76

[[record]]
molecule = "CCn1cc(C(=O)N2CCCC2)c(=O)c2cc(S(=O)(=O)N3CCOCC3)ccc21"
recorded_value = 100


Query `Cc1ccc(S(=O)(=O)Cc2ccc(C(=O)NCc3ccc4c(c3)OCO4)o2)cc1` yields nuclei count of 86.7
